Entries and their pIC50
molecular target: Tyrosine-protein kinase Mer/Tyrosine-protein kinase receptor UFO/Tyrosine-protein kinase receptor TYRO3 (Human, UniProt P30530+Q06418+Q12866); assay: HTRF Kinase Activity Biochemical Assay
Sequence (Q06418 whole entry): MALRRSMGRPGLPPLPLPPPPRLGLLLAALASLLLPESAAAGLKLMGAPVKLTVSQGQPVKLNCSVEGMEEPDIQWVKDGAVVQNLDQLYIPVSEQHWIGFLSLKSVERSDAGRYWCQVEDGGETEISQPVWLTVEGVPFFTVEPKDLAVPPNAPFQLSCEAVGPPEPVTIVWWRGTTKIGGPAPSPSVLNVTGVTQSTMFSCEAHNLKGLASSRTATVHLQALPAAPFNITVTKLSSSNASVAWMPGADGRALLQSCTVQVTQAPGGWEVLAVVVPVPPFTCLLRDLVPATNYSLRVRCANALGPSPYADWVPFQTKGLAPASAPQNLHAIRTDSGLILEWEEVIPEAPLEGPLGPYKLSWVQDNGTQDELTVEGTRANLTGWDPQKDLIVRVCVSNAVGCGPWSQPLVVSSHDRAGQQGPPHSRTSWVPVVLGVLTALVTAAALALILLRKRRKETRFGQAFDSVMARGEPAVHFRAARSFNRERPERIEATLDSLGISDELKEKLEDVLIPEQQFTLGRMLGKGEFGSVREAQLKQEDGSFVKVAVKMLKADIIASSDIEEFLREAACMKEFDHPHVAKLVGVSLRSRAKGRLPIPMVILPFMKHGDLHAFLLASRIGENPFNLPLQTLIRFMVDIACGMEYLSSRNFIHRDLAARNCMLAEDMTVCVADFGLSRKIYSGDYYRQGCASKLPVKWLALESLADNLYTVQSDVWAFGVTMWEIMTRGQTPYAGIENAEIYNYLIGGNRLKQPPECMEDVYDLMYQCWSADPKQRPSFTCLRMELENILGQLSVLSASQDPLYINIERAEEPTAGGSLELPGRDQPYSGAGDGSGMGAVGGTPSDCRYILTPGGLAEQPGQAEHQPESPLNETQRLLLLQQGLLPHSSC
Sequence (P30530 whole entry): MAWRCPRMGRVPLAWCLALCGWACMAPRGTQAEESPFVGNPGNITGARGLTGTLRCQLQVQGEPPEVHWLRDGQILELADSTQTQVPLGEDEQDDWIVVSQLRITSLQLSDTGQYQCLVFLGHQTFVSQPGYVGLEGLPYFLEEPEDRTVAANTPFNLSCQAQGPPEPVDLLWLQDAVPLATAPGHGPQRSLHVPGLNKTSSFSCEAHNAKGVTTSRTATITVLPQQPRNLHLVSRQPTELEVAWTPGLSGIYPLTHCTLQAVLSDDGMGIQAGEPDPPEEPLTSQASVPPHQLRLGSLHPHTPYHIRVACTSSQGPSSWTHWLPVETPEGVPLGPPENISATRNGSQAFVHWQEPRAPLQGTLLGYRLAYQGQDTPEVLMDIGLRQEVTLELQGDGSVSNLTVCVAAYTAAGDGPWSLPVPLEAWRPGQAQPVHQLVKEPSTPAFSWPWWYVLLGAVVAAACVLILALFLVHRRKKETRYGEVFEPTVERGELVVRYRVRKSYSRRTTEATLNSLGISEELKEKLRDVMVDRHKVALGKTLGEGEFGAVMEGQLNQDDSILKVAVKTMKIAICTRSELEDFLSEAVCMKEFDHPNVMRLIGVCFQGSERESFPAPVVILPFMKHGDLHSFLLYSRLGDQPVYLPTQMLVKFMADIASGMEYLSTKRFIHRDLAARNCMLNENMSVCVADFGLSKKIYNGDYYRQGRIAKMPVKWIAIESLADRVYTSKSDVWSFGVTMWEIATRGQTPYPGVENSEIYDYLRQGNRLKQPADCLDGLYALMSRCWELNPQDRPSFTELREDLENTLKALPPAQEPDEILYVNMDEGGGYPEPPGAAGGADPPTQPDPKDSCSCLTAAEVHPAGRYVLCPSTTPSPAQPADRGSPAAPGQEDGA
Sequence (Q12866 whole entry): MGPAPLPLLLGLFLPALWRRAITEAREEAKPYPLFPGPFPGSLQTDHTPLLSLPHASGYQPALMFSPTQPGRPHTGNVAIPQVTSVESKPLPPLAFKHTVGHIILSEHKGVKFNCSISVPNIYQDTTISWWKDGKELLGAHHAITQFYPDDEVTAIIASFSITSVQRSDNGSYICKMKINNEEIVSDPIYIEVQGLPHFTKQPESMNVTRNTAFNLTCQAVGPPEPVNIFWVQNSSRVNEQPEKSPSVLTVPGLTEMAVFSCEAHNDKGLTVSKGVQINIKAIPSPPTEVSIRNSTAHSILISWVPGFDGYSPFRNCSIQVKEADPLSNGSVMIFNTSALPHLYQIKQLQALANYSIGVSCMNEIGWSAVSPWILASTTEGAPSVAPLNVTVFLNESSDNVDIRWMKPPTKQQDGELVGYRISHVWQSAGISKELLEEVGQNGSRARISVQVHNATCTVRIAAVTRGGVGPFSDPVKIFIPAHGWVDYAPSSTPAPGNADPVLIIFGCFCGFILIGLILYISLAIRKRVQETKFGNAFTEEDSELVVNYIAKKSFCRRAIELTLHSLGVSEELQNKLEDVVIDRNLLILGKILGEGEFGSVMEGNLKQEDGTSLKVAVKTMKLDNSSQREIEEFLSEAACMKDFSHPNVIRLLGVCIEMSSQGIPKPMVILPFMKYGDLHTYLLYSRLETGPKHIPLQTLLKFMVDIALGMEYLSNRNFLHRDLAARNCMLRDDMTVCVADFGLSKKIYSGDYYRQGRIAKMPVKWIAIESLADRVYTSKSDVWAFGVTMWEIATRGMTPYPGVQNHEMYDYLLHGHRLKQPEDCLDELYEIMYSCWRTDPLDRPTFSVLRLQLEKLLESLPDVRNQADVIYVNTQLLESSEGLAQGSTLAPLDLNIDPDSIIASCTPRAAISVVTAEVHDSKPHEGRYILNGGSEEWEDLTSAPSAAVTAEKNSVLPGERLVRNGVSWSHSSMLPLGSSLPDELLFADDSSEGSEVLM
pIC50: −log10 of the molar value.

Observe how each entry below is paired with its result.
[[record]]
compound = "Nc1ncc(-c2ccc(S(=O)(=O)N3CCC3)cc2)cc1C(=O)N[C@@H]1CCN(C(=O)c2ccc(-c3ccccc3Cl)cc2)C1"
reported_endpoint = "pIC50"
result_value = "< 6.00"

[[record]]
compound = "CN1CCC(NC(=O)c2ccc(-c3cnc(N)c(C(=O)N[C@@H]4CCN(C(=O)c5ccc(-c6ccccc6Cl)cc5)C4)c3)cc2)CC1"
reported_endpoint = "pIC50"
result_value = "> 8.00"

[[record]]
compound = "Nc1ncc(-c2ccnc(N3CCNCC3)c2)cc1C(=O)N[C@@H]1CCN(C(=O)c2ccc(-c3ccc(F)cc3Cl)cc2)C1"
reported_endpoint = "pIC50"
result_value = "> 8.00"

[[record]]
compound = "Cn1cc(-c2cnc(N)c(C(=O)N[C@@H]3CCN(C(=O)Nc4ccc(C#N)cc4)C3)c2)cn1"
reported_endpoint = "pIC50"
result_value = "< 6.00"

[[record]]
compound = "CN1CCN(c2ccc(-c3cnc(N)c(C(=O)N[C@@H]4CCN(C(=O)c5ccc(-c6ccc(F)cc6Cl)cc5)C4)c3)cc2)CC1"
reported_endpoint = "pIC50"
result_value = "> 8.00"


Please find the next compound below.
INPUT: Endpoint output: pIC50 of CC1CCC(NC(=O)c2ccc(-c3cnc(N)c(C(=O)N[C@@H]4CCN(C(=O)c5ccc(-c6ccccc6Cl)cc5)C4)c3)cc2)CC1 (stereo partly specified) . Value?
OUTPUT: < 6.00
